target: Xenopus tropicalis tubulin tyrosine ligase (residues 2–377) (Xenopus tropicalis); test: AUC
Value Kind: Kd

Prompt: Fill blank: measured Kd of the binder VDSVEGEGEEEGEE [14-residue α–tubulin C-terminal peptide (VDSVEGEGEEEGEE)] is ____.
Response: ~144 µM
